experiment: Half life in dog
Format: ADME, organism-based, Canis lupus familiaris
assay-conditions: in vivo
recorded-endpoint: half-life (h)
Just the number in h, nothing appended.

Q: # lookup: half-life of NC(=O)c1ccc(CNC(=O)NC[C@@H]2CN(Cc3ccc(Cl)c(Cl)c3)CCO2)cc1
A: 2.8

---

Tested on: Human immunodeficiency virus 1
experiment: Antiviral activity against Human immunodeficiency virus 1 clinical isolate
Type: functional, organism-based
recorded-endpoint: pEC50
As a rule, pEC50 stands for the negative log10 of the concentration, concentration in M.

Q: Please report the recorded pEC50 for CCCCOCCOc1ccc(-c2ccc3c(c2)/C=C(/C(=O)Nc2ccc([S@@+]([O-])Cc4cncn4CCC)cc2)CCCN3CC(C)C)cc1 .
A: 10.21
